Molecular target: Peroxisome proliferator-activated receptor alpha (Homo sapiens)
Sequence (whole entry): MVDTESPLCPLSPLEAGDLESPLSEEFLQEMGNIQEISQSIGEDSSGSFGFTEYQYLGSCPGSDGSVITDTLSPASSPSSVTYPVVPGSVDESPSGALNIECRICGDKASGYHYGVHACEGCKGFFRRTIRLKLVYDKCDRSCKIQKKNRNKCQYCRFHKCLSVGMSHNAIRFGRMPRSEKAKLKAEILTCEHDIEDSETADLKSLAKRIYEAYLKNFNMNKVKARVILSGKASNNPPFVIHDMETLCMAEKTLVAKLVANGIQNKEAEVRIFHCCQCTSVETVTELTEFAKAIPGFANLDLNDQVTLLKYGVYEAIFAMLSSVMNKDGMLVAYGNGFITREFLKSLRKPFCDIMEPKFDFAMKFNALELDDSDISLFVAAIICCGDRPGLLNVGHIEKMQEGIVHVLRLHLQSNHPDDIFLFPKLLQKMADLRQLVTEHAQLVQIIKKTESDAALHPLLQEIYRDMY
Test: Agonist activity at human PPARalpha expressed in HEK293 cells assessed as receptor transactivation at 150 uM by luciferase reporter gene assay relative to control
Format: functional, cell-based
metric.name: fold change (FC)
Note: the reply should be a number with no unit written.

Case CCCC(Sc1nc2ccc(OCC)cc2s1)C(=O)O (racemic) , Peroxisome proliferator-activated receptor alpha (Homo sapiens), fold change (FC) recorded as 4.7

The value of fold change (FC) recorded for "CC(C)(Sc1nc2cc(Br)ccc2s1)C(=O)O" when tested on Peroxisome proliferator-activated receptor alpha (Homo sapiens) reads 4.5

Hey, Peroxisome proliferator-activated receptor alpha (Homo sapiens) data for O=C(O)C(Sc1nc2cc(Cl)ccc2s1)c1ccccc1 (racemic) : fold change (FC) came out at 1.6
